Attribute: Human GLP-1R potency [EC50 (pM)]
- Tgt: human GLP-1 receptor (human, UniProt P43220 24-463)
- Assay protocol: cell-based or functional assay
Starred links: 1 amine or outer side, 2 acyl side, 3 side chain; linkers in the order of their positions; H or OH if unused. Non-standard residues stand in square brackets, D forms with d. Groups on a side chain read outwards from the residue. *: point of attachment. Butyryl(4-SO2NHCO(CH2)16Tz) = O=C(CCCCCCCCCCCCCCCCc1nnn[nH]1)NS(=O)(=O)CCCC(=O)*; C20 diacid = O=C(O)CCCCCCCCCCCCCCCCCCC(=O)*; C18 diacid = O=C(O)CCCCCCCCCCCCCCCCC(=O)*; C16 diacid = O=C(O)CCCCCCCCCCCCCCC(=O)*; γGlu = O=C(O)[C@H](CCC(=O)[*:2])N[*:1]; εLys = N[C@@H](CCCCN[*:1])C(=O)[*:2]; AEEA = NCCOCCOCC(=O)O; Aib = CC(C)(N)C(=O)O
All answers are understood in pM, so give the number only.

Binder: Compound 0506 (not fully specified (residue 31)) peptide: H[Aib]EGTFTSDVSSYLEEQAAREFIAWLVRGRKGGGGEASELSTAALGRLSAELHELATLPRTETGSGSP-NH2
Human GLP-1R potency [EC50 (pM)]: 5.8
//
Binder: Compound 0295 (peptide) peptide: H[Aib]EGTFTSDVSSYLEEK([AEEA-AEEA-γGlu-C16 diacid])AAREFIAWLVRGRGGGGGASELSTAALGRLSK([AEEA-AEEA-γGlu-C16 diacid])ELHELATLPRTETGSGSP-NH2
Human GLP-1R potency [EC50 (pM)]: 4.8
//
Binder: Compound 0157 (peptide) peptide: H[Aib]EGTFTSDVSSYLEGQAAK([AEEA-AEEA-γGlu-C20 diacid])EFIAWLVRGRGQAPGQEPEASELSTAALGRLSAELHELATLPRTETGSGSP-NH2
Human GLP-1R potency [EC50 (pM)]: 28.7
//
Binder: Compound 0042 (peptide) peptide: H[Aib]EGTFTSDVSSYLEGQAAKEFIAWLVRGRK([AEEA-AEEA-γGlu-C18 diacid])GGEASELSTAALGRLSAELHELATLPRTETGSGSP-NH2
Human GLP-1R potency [EC50 (pM)]: 16.2

Task: Return reported Human GLP-1R potency [EC50 (pM)]; argument: Compound 0125 (peptide) peptide: H[Aib]EGTFTSDVSSYLEEQAARK(Butyryl(4-SO2NHCO(CH2)16Tz))FIAWLVRGRGEASELSTAALGRLSAELHELATLPRTETGSGSP-NH2
Output: 8

Task: Return reported Human GLP-1R potency [EC50 (pM)]; argument: Compound 0044 (peptide) peptide: H[Aib]EGTFTSDVSSYLEGQAAK([εLys-AEEA-AEEA-γGlu-C18 diacid])EFIAWLVRGRGGGEASELSTAALGRLSAELHELATLPRTETGSGSP-NH2
Output: 16
